system: PDE peak B (novel cGMP-specific PDE); assay: cGMP hydrolysis by PDE peak B isolated from SW-480 cells; assay type: biochemical, human
REPORTED METRIC: inhibition / sensitivity of the new cGMP-PDE (peak B), in words

Use the examples below as a reference point.
MOLECULE | MEASURED VALUE
CSc1ccc(/C=C2/C(C)=C(CC(=O)O)c3cc(F)ccc32)cc1 [Sulindac sulfide] | competitively inhibit
COc1ccc(C2CNC(=O)C2)cc1OC1CCCC1 (stereo not drawn) [Rolipram] | relatively insensitive
CCCc1nn(C)c2c(=O)[nH]c(-c3cc(S(=O)(=O)N4CCN(C)CC4)ccc3OCC)nc12 [Sildenafil] | relatively insensitive
O=C([O-])C1CCN(c2nc(NCc3ccc4c(c3)OCO4)c3cc(Cl)ccc3n2)CC1.[Na+] [Compound E4021] | relatively insensitive
CC1(C)C(=O)Nc2ccc(C3=NNC(=O)CC3)cc21 [Indolidan] | relatively insensitive
CCOC(=O)C1=C[C@]2(CC)CCCN3CCc4c(n1c1ccccc41)[C@@H]32 [Vinpocetine] | relatively insensitive
COc1cc(/C=C2/C(C)=C(CC(=O)NCc3ccccc3)c3cc(F)ccc32)cc(OC)c1OC [Compound E] | competitively inhibit

Please turn your attention to the following entry.
(Q) # query: inhibition / sensitivity of the new cGMP-PDE (peak B), in words of entry CCCOc1ccccc1-c1nc2nn[nH]c2c(=O)[nH]1 [Zaprinast]
(A) relatively insensitive
